target: T1, recombinant human ROR1 extracellular domain (human, UniProt Q01973 30-406); assay: ELISA, soluble Fab on coated huROR1-ECD
T1 construct: biotinylated for the filter lifts; also called huROR1-ECD; human ROR1-ECD
T1 sequence (Q01973 30-406 limits assumed): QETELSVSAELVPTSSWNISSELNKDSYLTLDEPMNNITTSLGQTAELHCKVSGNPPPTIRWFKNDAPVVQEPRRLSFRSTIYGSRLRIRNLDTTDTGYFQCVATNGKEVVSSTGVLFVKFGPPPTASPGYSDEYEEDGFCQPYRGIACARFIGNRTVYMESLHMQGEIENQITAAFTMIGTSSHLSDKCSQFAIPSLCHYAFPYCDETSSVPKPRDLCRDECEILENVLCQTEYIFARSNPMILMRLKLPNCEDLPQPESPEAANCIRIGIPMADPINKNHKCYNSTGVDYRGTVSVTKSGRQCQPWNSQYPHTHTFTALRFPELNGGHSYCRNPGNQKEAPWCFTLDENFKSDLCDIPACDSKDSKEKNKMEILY
I'd be grateful if you could share measured pKd for these entries.
# reply with the number alone; pKd is -log10 of concentration in mol/L

Quick note, pKd for Ab1 Fab variant L1 L41M (Fab, V domains shown, Fab) VH: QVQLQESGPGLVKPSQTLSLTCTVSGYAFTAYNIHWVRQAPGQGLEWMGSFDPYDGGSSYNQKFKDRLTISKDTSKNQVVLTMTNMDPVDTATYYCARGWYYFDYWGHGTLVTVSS VL: DIVMTQTPLSLPVTPGEPASISCRASKSISKYMAWYQQKPGQAPRLLIYSGSTLQSGIPPRFSGSGYGTDFTLTINNIESEDAAYYFCQQHDESPYTFGEGTKVEIK landed at 8.89

Quick note, pKd for Ab1 Fab variant H1 A30P (Fab, V domains shown, Fab) VH: QVQLQESGPGLVKPSQTLSLTCTVSGYPFTAYNIHWVRQAPGQGLEWMGSFDPYDGGSSYNQKFKDRLTISKDTSKNQVVLTMTNMDPVDTATYYCARGWYYFDYWGHGTLVTVSS VL: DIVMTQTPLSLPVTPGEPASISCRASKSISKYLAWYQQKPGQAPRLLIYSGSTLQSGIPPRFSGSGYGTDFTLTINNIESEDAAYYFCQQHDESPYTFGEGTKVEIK landed at 7.92

Quick note, pKd for Ab1 Fab variant H1 Y29G (Fab, V domains shown, Fab) VH: QVQLQESGPGLVKPSQTLSLTCTVSGGAFTAYNIHWVRQAPGQGLEWMGSFDPYDGGSSYNQKFKDRLTISKDTSKNQVVLTMTNMDPVDTATYYCARGWYYFDYWGHGTLVTVSS VL: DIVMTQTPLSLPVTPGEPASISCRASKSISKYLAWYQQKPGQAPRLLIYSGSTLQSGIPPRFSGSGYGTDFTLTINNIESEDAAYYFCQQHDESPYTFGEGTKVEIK landed at 8.15
